Values were extracted from ChEMBL document CHEMBL1201862.

test system: SK-MEL-2; assay: NCI tumour cell line growth inhibition, 48 h
The source made the active and inactive calls. No stated cut-off is given here; in the data, active = GI50 up to about 1.1 µM and inactive = higher.
// allowed return values: active, inactive

{"Compound": "Cn1c(N/N=C/c2ccc(Cl)cc2)nc(-c2ccc(Cl)cc2)c(C#N)c1=O", "Label Class": "inactive"}
{"Compound": "COc1ccc(/C=C/C(=O)c2cc(C(C)(C)C)c(O)c(C(C)(C)C)c2)cc1OC", "Label Class": "inactive"}
{"Compound": "O=C(NCCCCCCNC(=O)n1cc(F)c(=O)[nH]c1=O)NCCCOCCOCCOCCOCCOCCOCCOCCOCCOCCOCCOCCOCCOCCOCCOCCOCCOCCOCCOCCOCCOCCCNC(=O)C(O)C(O)C(OC1OC(CO)C(O)C(O)C1O)C(O)CO (stereo unspecified)", "Label Class": "inactive"}
{"Compound": "O=[N+]([O-])c1ccc2nc(/C(=N/Nc3ccccc3)C(O)c3ccco3)c(O)nc2c1 (stereo unspecified)", "Label Class": "inactive"}
{"Compound": "C[N+](C)([O-])CCCNc1ccnc2cccc([N+](=O)[O-])c12", "Label Class": "inactive"}

Request: Assay result, entry `Cc1cc(C)c(S(=O)(=O)ONC(=O)OC(C)(C)C)c(C)c1` — outcome?
Response: inactive

Request: Assay result, entry `Fc1ccc(-c2sc(-c3cccs3)cc2Cc2cccs2)cc1` — outcome?
Response: inactive

Request: Assay result, entry `Cn1c2ccccc2c(=O)c2c([N+](=O)[O-])ccc(NCCN)c21` — outcome?
Response: inactive

* * *

test system: SK-OV-3; assay: NCI tumour cell line growth inhibition, 48 h
Active and inactive are the calls of the source. Cut-off read from the data, not from the text of the source: active = GI50 up to about 1.1 µM and inactive = higher.
// allowed return values: y for active, n for inactive

# example entries with known answers
{"Compound": "COc1ccc(/C=C/C(=O)/C=C/c2ccc(OC)cc2)cc1", "Label Class": "n"}
{"Compound": "CC(=O)O/N=C(/C)c1ccccc1O", "Label Class": "n"}
{"Compound": "O=[N+]([O-])c1ccc(C[P+](c2ccccc2)(c2ccccc2)c2ccccc2)cc1", "Label Class": "n"}
{"Compound": "N#CCCN(CCC#N)c1ccc(/C=C2\\N=C(c3cc([N+](=O)[O-])ccc3Cl)N(S(=O)(=O)c3ccccc3)C2=O)cc1", "Label Class": "n"}

Request: Assay result, entry `Cc1ccc(-c2c(C#N)c(S)n(NS(=O)(=O)c3ccccc3)c(=O)c2C#N)cc1` — outcome?
Response: n

Request: Assay result, entry `Cc1ccc2cccc(OC(=O)c3cc4c(cc3Cl)Sc3nccn3S4(=O)=O)c2n1` — outcome?
Response: n

Request: Assay result, entry `CNCc1cc(OC)ccc1-c1ccc(OC)c(OC)c1OC` — outcome?
Response: n

Request: Assay result, entry `CC1=C[C@H](C[C@]2(C)c3c(c4c(C)cccc4oc3=O)O[C@@H]2C)OC1=O` — outcome?
Response: n

Request: Assay result, entry `Cc1ccc(-n2c3nc(=O)n(C)c(=O)c-3nc3ccccc32)cc1` — outcome?
Response: n

* * *

test system: OVCAR-3; assay: NCI tumour cell line growth inhibition, 48 h
Calls of active or inactive are those of the source. Cut-off read from the data, not from the text of the source: active = GI50 up to about 1.1 µM and inactive = higher.
Assay Endpoint: GI50

Study these solved cases before continuing.
{"Compound": "COc1cccc(N2C(=O)C3c4[nH]c5ccccc5c4C4c5ccccc5CCC4C3C2=O)c1 (stereo not drawn)", "GI50": "5.5 µM (inactive)"}
{"Compound": "CCCN1C(=O)CN(S(=O)(=O)c2ccc(Cl)cc2)C1=O", "GI50": "> 100 µM (inactive)"}

Request: Please list GI50 recorded for the compound `COC(=O)c1oc([N+](=O)[O-])c(Cl)c1Cl`
Response: 6.1 µM (inactive)

* * *

test system: NCI-H23; assay: NCI tumour cell line growth inhibition, 48 h
Active and inactive are the calls of the source. Cut-off read from the data, not from the text of the source: active = GI50 up to about 1.1 µM and inactive = higher.
Field: GI50. Provide a value for each of the molecules that follow.

{"Molecule": "OCCOCn1cc(Cn2ncc3c(SCc4ccccc4)ncnc32)nn1", "Experimental Target": "NCI-H23", "Test Value": "38.3 µM (inactive)"}
{"Molecule": "CSC1(C(=O)O)C2CCC3C2CCC31 (stereo unspecified)", "Experimental Target": "NCI-H23", "Test Value": "> 100 µM (inactive)"}
{"Molecule": "N#CC(NCCc1ccccc1)c1ccc(C(C#N)NCCc2ccccc2)cc1 (stereo unspecified)", "Experimental Target": "NCI-H23", "Test Value": "30.7 µM (inactive)"}
{"Molecule": "C=CCOC(C)(C)C1=CCC(C)CC1 (stereo unspecified)", "Experimental Target": "NCI-H23", "Test Value": "> 100 µM (inactive)"}
{"Molecule": "CC(=O)OC1=NN=C2COC(c3ccccc3OC(C)=O)=NN2C1", "Experimental Target": "NCI-H23", "Test Value": "> 50 µM (inactive)"}

I'm hoping you can list GI50 for every molecule here, please.
1. C1OC1C1CO1 (stereo unspecified)
2. O=C(OCc1ccccc1)c1nc2ccccc2n1S(=O)(=O)c1ccccc1
3. C/N=C(\NC(=S)N(C)C)N(C)C

Response:
["18.1 µM (inactive)", "> 100 µM (inactive)", "> 100 µM (inactive)"]

I'm hoping you can list GI50 for every molecule here, please.
1. CCCCCCCCCCCC[N+]12CC[N+](CCN)(CC1)CC2
2. CCOC(=O)CON=c1c2ccccc2ccc2ccccc12

Response:
1: 51.6 µM (inactive); 2: > 100 µM (inactive)

Request: Find the measured GI50 of COc1ccccc1N(CN1C(=O)CCC1C(=O)O)C(C)=O (stereo unspecified) with NCI-H23 as test system.
Response: > 100 µM (inactive)

* * *

tested on: K562; test: NCI tumour cell line growth inhibition, 48 h
Calls of active or inactive are those of the source. Rule as the data show it: active = GI50 up to about 1.1 µM and inactive = higher.
// allowed return values: active, inactive

# example entries with known answers
{"Compound": "COC(=O)C1C(OC(=O)C(Cl)(c2ccccc2)c2ccccc2)CC2CCC1N2C (stereo unspecified)", "Experimental Target": "K562", "Label Class": "inactive"}
{"Compound": "CCCCCOC(=O)C(=O)Nc1[nH]nnc1C(N)=O", "Experimental Target": "K562", "Label Class": "inactive"}
{"Compound": "Nn1c(-c2ccccc2)n[nH]c1=O", "Experimental Target": "K562", "Label Class": "inactive"}
{"Compound": "COc1ccc(C2c3cc4c(cc3OC(NNC(N)=O)C2C)OCO4)cc1 (stereo unspecified)", "Experimental Target": "K562", "Label Class": "inactive"}
{"Compound": "C/C(=C1/N=C(c2ccccc2)OC1=O)c1cccs1", "Experimental Target": "K562", "Label Class": "inactive"}
{"Compound": "CCCNCC(=O)O[C@]1(CC)C(=O)OCc2c1cc1n(c2=O)Cc2cc3ccccc3nc2-1", "Experimental Target": "K562", "Label Class": "active"}
{"Compound": "CC12CCC(C(=O)O1)C(C)(C)O2 (stereo unspecified)", "Experimental Target": "K562", "Label Class": "inactive"}
{"Compound": "Cc1ccc(S(=O)(=O)NC(=O)Nc2c(S(N)(=O)=O)cc(S(N)(=O)=O)c(Cl)c2Cl)cc1", "Experimental Target": "K562", "Label Class": "inactive"}

Request: Assay result, entry `CCC(=O)N(O)C(C)(C)C` — outcome?
Response: inactive

Request: Assay result, entry CC1(C)OCC(C2OC(C)(C)OC2[C@H]2O[C@@]3(O)[C@H]4[C@H](C=CC[C@@H]42)[C@@H](OCc2ccccc2)[C@H](OCc2ccccc2)[C@H]3OCc2ccccc2)O1 (stereo partly specified) — outcome?
Response: inactive

Request: Assay result, entry `CCCN1C(=O)CN(S(=O)(=O)c2ccc(Cl)cc2)C1=O` — outcome?
Response: inactive

Request: Assay result, entry `CCCCCc1c2nc(c(CCCCC)c3ccc([nH]3)c(CCCCC)c3nc(c(CCCCC)c4ccc1[nH]4)C=C3)C=C2` — outcome?
Response: inactive

Request: Assay result, entry `Oc1ccc2ccccc2c1OCc1nnc(CCCCCCCCc2nnc(COc3c(O)ccc4ccccc34)n2Nc2ccccc2)n1Nc1ccccc1` — outcome?
Response: active

* * *

Field: GI50. Provide a value for each of the compounds that follow.
system: K562; experiment: NCI tumour cell line growth inhibition, 48 h
Calls of active or inactive are those of the source. Cut-off read from the data, not from the text of the source: active = GI50 up to about 1.1 µM and inactive = higher.

Study these solved cases before continuing.
{"Compound": "COc1ccc2nccc(C3=CCC4CCN(C(=O)c5ccccc5)C3C4)c2c1 (centres undefined)", "Experimental Target": "K562", "Assay Endpoint": "GI50", "Test Value": "74.5 µM (inactive)"}
{"Compound": "COc1ccc(C[C@H](N)C(=O)NC2C(CO)OC(n3cnc4c(N(C)C)ncnc43)C2O)cc1 (some centres undefined)", "Experimental Target": "K562", "Assay Endpoint": "GI50", "Test Value": "0.133 µM (active)"}
{"Compound": "C[n+]1ccc(Nc2ccc(NC(=O)c3ccc(Nc4cc[n+](C)c5ccc([N+](=O)[O-])cc45)cc3[N+](=O)[O-])cc2)cc1", "Experimental Target": "K562", "Assay Endpoint": "GI50", "Test Value": "14.3 µM (inactive)"}
{"Compound": "O=C(O)CN1CCN(CC(=O)O)CCN(CC(=O)O)CCN(CC(=O)O)CC1", "Experimental Target": "K562", "Assay Endpoint": "GI50", "Test Value": "> 100 µM (inactive)"}
{"Compound": "C#CC1(OC(C)=O)CCC2C3CC=C4C=C(OC(C)=O)CCC4(C)C3CCC21C (centres undefined)", "Experimental Target": "K562", "Assay Endpoint": "GI50", "Test Value": "23.9 µM (inactive)"}
{"Compound": "COc1cc(O)c(Cc2ccccc2O)c(O)c1C(=O)CCc1ccccc1", "Experimental Target": "K562", "Assay Endpoint": "GI50", "Test Value": "5.26 µM (inactive)"}

I'm hoping you can list GI50 for every compound here, please.
1. N#CC(NCCc1ccccc1)c1ccc(C(C#N)NCCc2ccccc2)cc1 (centres undefined)
2. CC1=C[C@H](C[C@]2(C)c3c(c4c(C)cccc4oc3=O)O[C@@H]2C)OC1=O
3. SCc1ccc(-c2ccc(CS)cc2)cc1
4. CC(=O)OCc1cc(OC(C)=O)cnc1COC(C)=O
5. Cc1ccc(-n2c3nc(=O)n(C)c(=O)c-3nc3ccccc32)cc1

Response:
1. 24.2 µM (inactive)
2. 28 µM (inactive)
3. 4.07 µM (inactive)
4. > 100 µM (inactive)
5. 17 µM (inactive)

I'm hoping you can list GI50 for every compound here, please.
1. O=C(Nc1ccc2nc(O)n[n+]([O-])c2c1)C(F)(F)F
2. N=C(N)NS(=O)(=O)c1ccc(NC(=O)c2cccc3c(NNc4ccc(C(=O)O)cc4)c4ccccc4nc23)cc1

Response:
1: > 100 µM (inactive); 2: 50.1 µM (inactive)

I'm hoping you can list GI50 for every compound here, please.
1. CCOC(=O)c1cccc(/N=N/c2nc[nH]c2/C=C/C(=O)OC)c1
2. Cc1cc(C)c(S(=O)(=O)ONC(=O)OC(C)(C)C)c(C)c1
3. Cc1ccc(NCC(=O)N2CC(=O)Nc3ccccc32)cc1
4. Cc1c2oc(=O)c(C#N)cc2c2ccccn12

Response:
1: 4.06 µM (inactive); 2: > 100 µM (inactive); 3: > 100 µM (inactive); 4: > 100 µM (inactive)

I'm hoping you can list GI50 for every compound here, please.
1. CCOC(=O)C(CC/C=C\c1ccccc1)N1CCC[C@H]1C(=O)OC (some centres undefined)
2. O=C1C=C(NCCOCCO)C(=O)c2c(O)ccc(O)c21
3. Nc1cccc2nsnc12
4. CCCSc1ccc2[nH]c(N3C(=O)/C(=C/c4ccc(O)c(OC)c4)N=C3c3ccccc3)cc2c1

Response:
["49.4 µM (inactive)", "27.9 µM (inactive)", "16.7 µM (inactive)", "3.68 µM (inactive)"]

I'm hoping you can list GI50 for every compound here, please.
1. CC(=O)N(CN1C(=O)CCC1C(=O)O)c1ccc(C)cc1 (centres undefined)
2. Cc1c(C#N)c(=O)[nH]c(=O)n1CCN1CCN(C(=O)NCCCCCCNC(=O)N2CCN(CCn3c(C)c(C#N)c(=O)[nH]c3=O)CC2)CC1
3. COc1cc2ccnc3c2c(c1OC)-c1coc(SC)c1-3
4. COc1cc2cc(C(=O)N3CC(COS(C)(=O)=O)c4ccc(O)cc43)[nH]c2c(OC)c1OC (centres undefined)
5. C=CCOC(=O)NC1C(OC(C)[C@@H](NC(=O)OCc2ccccc2)C(=O)OC(C)(C)C)OC(COC(C)=O)C(OC(C)=O)C1OC(C)=O (some centres undefined)

Response:
1. > 100 µM (inactive)
2. > 100 µM (inactive)
3. > 100 µM (inactive)
4. < 0.0001 µM (active)
5. 72.9 µM (inactive)

I'm hoping you can list GI50 for every compound here, please.
1. COc1cc2ccccc2oc1=O
2. CCOC(=O)C1CC/C(=C(/C#N)C(=O)OC)N1 (centres undefined)
3. O=C(Cn1ccc(=O)[nH]c1=O)Nc1ccc(C(=O)O)c(O)c1

Response:
["> 100 µM (inactive)", "> 100 µM (inactive)", "> 100 µM (inactive)"]

I'm hoping you can list GI50 for every compound here, please.
1. CC(C)(C)OC(=O)N(CCNS(=O)(=O)c1cccc2cnccc12)CCC(=O)ON1C(=O)CCC1=O
2. O=C(Nc1nnc(-c2ccccc2)o1)C(SC(=S)N1CCCCC1)c1ccccc1 (centres undefined)
3. C1OC1C1CO1 (centres undefined)
4. Cc1cc2c3ccccc3n3c2c2c1OC1(C)CCC(C2C1)C3(C)C (centres undefined)
5. Cc1ccc(C2CC(c3ccco3)=NN2c2ccccc2)o1 (centres undefined)

Response:
1: > 100 µM (inactive); 2: 9.55 µM (inactive); 3: 80.2 µM (inactive); 4: > 25 µM (inactive); 5: > 100 µM (inactive)
